Test: Stability in human liver microsomes assessed as parent compound remaining at 50 uM preincubated for 5 to 7 mins followed by NADPH addition and measured 10 mins post-dose by LC-MS/MS
Type: ADME, Microsome
Details: read-out: Stability
In this section, each of the molecules is paired with its reported remaining at 10 min, 50 µM.
Just the number in %, nothing appended.

| Molecule | remaining at 10 min, 50 µM [%] |
| --- | --- |
| CC(C)Oc1cc([C@@](Cc2ccccc2)(NC(=O)C(N)C(O)(C(F)(F)F)C(F)(F)F)c2cc(F)cc(OC(F)(F)C(F)F)c2)ccc1F (stereo partly specified) | 95 |
| CN(C)C(C(=O)N[C@](Cc1ccccc1)(c1ccc(F)cc1)c1cc(F)cc(C(F)(F)F)c1)C(O)(C(F)(F)F)C(F)(F)F (stereo partly specified) | 58 |
| CC(C)Oc1cc([C@@](Cc2ccccc2)(NC(=O)C(N)C(O)C(F)(F)F)c2cc(F)cc(OC(F)(F)C(F)F)c2)ccc1F (stereo partly specified) | 2 |
| NC(C(=O)N[C@](Cc1ccccc1)(c1ccc(F)cc1)c1cc(F)cc(C(F)(F)F)c1)C(O)(C(F)(F)F)C(F)(F)F (stereo partly specified) | 100 |
| CC(C)Oc1cc([C@@](Cc2ccccc2)(NCC(O)C(O)(C(F)(F)F)C(F)(F)F)c2cc(F)cc(OC(F)(F)C(F)F)c2)ccc1F (stereo partly specified) | 100 |

Now let's try a different one.
What value of remaining at 10 min, 50 µM has been recorded for this entry: CC(C)(C)Oc1cc([C@@](Cc2ccccc2)(NC(=O)C(N)C(O)(C(F)(F)F)C(F)(F)F)c2cc(F)cc(OC(F)(F)C(F)F)c2)ccc1F (stereo partly specified)
100

###

Target: Cholesteryl ester transfer protein (Homo sapiens, UniProt P11597)
Sequence (P11597 whole entry): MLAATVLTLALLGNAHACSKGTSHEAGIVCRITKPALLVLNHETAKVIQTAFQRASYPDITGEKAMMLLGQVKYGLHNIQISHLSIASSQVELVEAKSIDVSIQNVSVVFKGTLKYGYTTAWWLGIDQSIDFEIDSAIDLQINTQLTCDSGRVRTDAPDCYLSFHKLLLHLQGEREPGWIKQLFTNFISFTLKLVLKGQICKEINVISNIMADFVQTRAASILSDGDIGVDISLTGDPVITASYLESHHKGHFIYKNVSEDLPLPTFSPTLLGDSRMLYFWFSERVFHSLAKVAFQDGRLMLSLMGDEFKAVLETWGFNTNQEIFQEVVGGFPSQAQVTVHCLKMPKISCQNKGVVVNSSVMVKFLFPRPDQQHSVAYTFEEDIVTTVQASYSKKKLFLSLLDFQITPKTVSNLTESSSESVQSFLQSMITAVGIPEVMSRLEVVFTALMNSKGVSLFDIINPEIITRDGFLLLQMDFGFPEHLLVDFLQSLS
Test: Inhibition of human recombinant CETP assessed as reduction in [3H]CE/HDL transfer incubated for 4 hrs by scintillation proximity assay
In this section, each of the molecules is paired with its reported IC50.
Just the number in nM, nothing appended.

Observe how each entry below is paired with its result.
| Molecule | Endpoint | Recorded Value |
| --- | --- | --- |
| NC(C(=O)N[C@@](Cc1ccccc1)(c1cc(F)cc(OC(F)(F)C(F)F)c1)c1ccc(F)c(OC2CC2)c1)C(O)(C(F)(F)F)C(F)(F)F (some centres undefined) | IC50 | 2 |
| CC(C)NC(C(=O)N[C@](Cc1ccccc1)(c1ccc(F)cc1)c1cc(F)cc(C(F)(F)F)c1)C(O)(C(F)(F)F)C(F)(F)F (some centres undefined) | IC50 | 230 |
| CNC(C(=O)N[C@](Cc1ccccc1)(c1ccc(F)cc1)c1cc(F)cc(C(F)(F)F)c1)C(O)(C(F)(F)F)C(F)(F)F (some centres undefined) | IC50 | 140 |

Now let's try a different one.
What value of IC50 has been recorded for this entry: O=C(CC(O)(C(F)(F)F)C(F)(F)F)N[C@@](Cc1ccccc1)(c1cc(F)cc(C(F)(F)F)c1)c1ccc(Cl)cn1
120
